Endpoint: IC50. System: EGFR (human). Items follow.
observed.property: IC50 (nM)

P: Brc1cccc(Nc2ncnc3cc4c(cc23)OCCO4)c1
Q: Fc1ccc(Nc2ncnc3cc4c(cc23)OCCO4)cc1
Field: entry with larger IC50 (options P / Q ). Answer format: the label of the selected item.
Q
(Q: 77.6 nM, P: 17.8 nM)
